Tested on: XF 498 CNS
Test: NCI tumour cell line growth inhibition, 48 h
Assign y to entries whose TGI meets or exceeds 40 µM; assign n to the rest.

>>> cat("Cc1cc(Br)cc(C)c1NC(=O)C(=O)C(C(=O)c1ccncc1)C1OC(=O)c2ccccc21 (configuration not stated)")
"y"
>>> cat("Cc1cc2c(cc1C)[n+](=O)c(C(=O)/C=C/c1ccc3c(c1)OCO3)c(C)n2[O-]")
"y"
>>> cat("CCN(CCCl)CCCCCNc1c2ccccc2nc2ccc(OC)cc12")
"n"
>>> cat("Cc1c(-c2coc(-c3ccccc3)n2)c(=O)n(-c2ccccc2)n1C")
"y"
>>> cat("CC(CN1CC(=O)NC(=O)C1)N1CC(=O)NC(=O)C1 (configuration not stated)")
"y"
>>> cat("O=c1nc(NC(c2ccccc2)(c2ccccc2)c2ccccc2)ccn1CCCl")
"n"
>>> cat("Cc1cc(C)nc(NS(=O)(=O)c2ccc(Nc3c4ccccc4nc4c(C(=O)Nc5ccc(S(=O)(=O)Nc6cc(C)on6)cc5)ccc(Cl)c34)cc2)n1")
"n"
>>> cat("COc1cc(O)c(C(=O)CC(C)=O)c(OC)c1")
"y"
>>> cat("S=c1nc(C(c2ccccc2)c2ccccc2)[nH][nH]1")
"y"
>>> cat("N=c1n(CC(=O)NC23CC4CC(CC(C4)C2)C3)c2ccccc2n1CC(=O)NC12CC3CC(CC(C3)C1)C2")
"n"
>>> cat("N#CNC(=NCc1ccccc1)NCCc1c[nH]c2ccccc12")
"y"
>>> cat("NC(=O)COc1c(Br)cc(Br)cc1Br")
"y"
